Each recorded value in this set is attributed to patent US20170029436A1.

test: CytoTox-Glo cytotoxicity (viability) assay; type: cell-based; conditions: human, Huh7/Scr cells, read-out: CC50 (half maximal cytotoxic concentration)
Form field: CC50 at 72 h (one value per entry).

>  <compound>
COC1CCCCC(c2ccccc2)OC(=O)CC2(O)CC(O)C(C)C(O2)C(C)CCC1O (stereo not shown)

>  <CC50 at 72 h [µM]>
52.2

$$$$
>  <compound>
COC1CCCCC(c2ccccc2)OC(=O)CC2(O)CC(O)C(C)C(O2)C(C)C(O)CC1O (stereo not shown)

>  <CC50 at 72 h [µM]>
45.5

$$$$
>  <compound>
CCC[C@H](NC(=O)[C@@H]1[C@H]2CCC[C@H]2CN1C(=O)[C@@H](NC(=O)[C@@H](NC(=O)c1cnccn1)C1CCCCC1)C(C)(C)C)C(=O)C(=O)NC1CC1 [VX-950, reference compound]

>  <CC50 at 72 h [µM]>
94.5

$$$$
>  <compound>
COC1/C=C/C(C)C2OC(O)(CC(=O)OC(c3ccccc3)CCCCC1OC)CC(O)C2C (stereo not shown)

>  <CC50 at 72 h [µM]>
199

$$$$
>  <compound>
CCCCCCCCCCCCCCOc1ccc(C(=O)O)o1 [TOFA, 5-(Tetradecyloxy)-2-furoic acid, reference compound]

>  <CC50 at 72 h [µM]>
33.9

$$$$
>  <compound>
COC1CCCCC(c2ccccc2)OC(=O)CC2(O)CC(O)C(C)C(O2)C(C)CCC1OC (stereo not shown)

>  <CC50 at 72 h [µM]>
98.7

$$$$
>  <compound>
COC1CCCCC(c2ccccc2)OC(=O)CC2(O)CC(O)C(C)C(O2)C(C)/C=C/C1O (stereo not shown)

>  <CC50 at 72 h [µM]>
13.6

$$$$
